Measured values drawn from the supplement of paper PMC10567573 for this set.

B1: MATN2 (parent)
chain: VNVPGSFVCQCYSGYALAEDGKRC

- Variants of: B1
- TEST: protein stability index of a GFP-peptide fusion (GPS, HEK-293T) (PSI 1-6); higher = more stable;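 also: lentivirally expressed fusions sorted by FACS into six bins by GFP to DsRed ratio, PSI derived from sequencing read proportions per bin multiplied by bin number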
- STATED CONDITIONS: c terminus: a fixed tail appended
So I've got a bunch of variants here, and I need their protein stability index values.
When you answer, write just the number.

Please report the measured protein stability index for G21M
3.7

Please give the documented protein stability index of G21T
3.02

Return reported protein stability index. Input variant: C9F
2.54

For the variant R23Y , give its reported protein stability index.
1.83

Using known records, supply protein stability index for P4E
2.46

Answer with the recorded protein stability index of S6K only.
1.89

State its protein stability index: P4T
1

For the variant F7Q , report protein stability index.
2.14

Complete the entry with protein stability index for P4H
1.47

Give the value of protein stability index reported for the following: F7S
2.62

For the variant A18C , give its measured protein stability index value.
3.33
